study_system: purified recombinantly expressed human SSAO (Homo sapiens)
procedure_details: SSAO enzyme inhibition assay (benzylamine substrate; hydrogen peroxide/HRP-coupled or 14C aldehyde detection)
condition_description: human recombinant SSAO, RT, benzylamine as substrate; read-out: SSAO inhibitory activity IC50
Counter-ions that a name gives are not always drawn.
Entries and their IC50 values follow.

Before answering, review these 8 worked examples.
O=C(O)C1CCN(c2nn(-c3ccc(Cl)cc3)c3cnccc23)CC1 [Example 13, hydrochloride] = 0.1 to 0.5 µM
Clc1ccc(-n2nc(C3CCN(Cc4cccnc4)CC3)c3ccncc32)cc1 = 0.1 to 0.5 µM
OC[C@@H]1COCCN1c1nn(-c2ccc(Cl)cc2)c2cnccc12 = < 0.1 µM
Cc1ccc(-n2nc(N3CCOC(CO)C3)c3ccncc32)cc1 (stereo not drawn) = < 0.1 µM
Cc1ccc(-n2nc(N3CCOCC3CO)c3ccncc32)cc1 (stereo not drawn) = < 0.1 µM
COC(=O)C1COCCN1c1nn(-c2ccc(Cl)cc2)c2cnccc12 (stereo not drawn) = 0.1 to 0.5 µM
NCCCCC(=O)N1CCC(c2cn(-c3ccc(Cl)cc3)c3cnccc23)CC1 = < 0.1 µM
CCCCN(C)c1nn(-c2ccc(Cl)cc2)c2cnccc12 = 0.5 to 2.5 µM

Quote IC50 reported for CN(C)CCCNC(=O)N1CCC(c2cn(-c3ccc(Cl)cc3)c3cnccc23)CC1 please.
< 0.1 µM

----------
study_system: purified recombinantly expressed human SSAO (Homo sapiens, UniProt Q16853)
procedure_details: SSAO enzyme inhibition assay (benzylamine substrate; hydrogen peroxide/HRP-coupled or 14C aldehyde detection)
condition_description: human recombinant SSAO, RT, benzylamine as substrate; read-out: SSAO inhibitory activity IC50
pIC50: −log10 of the molar value.
quantity_measured: pIC50

Before answering, review these 2 worked examples.
O=C(C1CCN(c2nn(-c3ccc(Cl)cc3)c3cnccc23)CC1)N1CCOCC1 = 5.60 to 6.30
NCCN1CCC(c2cn(-c3ccc(Cl)cc3)c3cnccc23)CC1 = > 7.00

Turning now to a further molecule:
Quote pIC50 reported for CCOC(=O)C1CCN(c2nn(-c3ccc(C)cc3)c3cnccc23)CC1 please.
6.30 to 7.00

----------
study_system: purified recombinantly expressed human SSAO (Homo sapiens, UniProt Q16853)
procedure_details: SSAO enzyme inhibition assay (benzylamine substrate; hydrogen peroxide/HRP-coupled or 14C aldehyde detection)
condition_description: human recombinant SSAO, RT, benzylamine as substrate; read-out: SSAO inhibitory activity IC50
Counter-ions that a name gives are not always drawn.
quantity_measured: IC50

O=C(N1CCNCC1)N1CCC(c2cn(-c3ccc(Cl)cc3)c3cnccc23)CC1 = < 100 nM
O=C(C1CCN(c2nn(-c3ccc(Cl)cc3)c3cnccc23)CC1)N1CCNCC1 [Example 16, dihydrochloride] = 100 to 500 nM
Cc1ccc(-n2cc(N3CCOCC3)c3ccncc32)cc1 = 100 to 500 nM
Oc1cncc2c1c(C1CCNCC1)cn2-c1ccc(Cl)cc1 = < 100 nM
NCCNC(=O)N1CCC(c2cn(-c3ccc(Cl)cc3)c3cnccc23)CC1 = < 100 nM
OCCC1COCCN1c1nn(-c2ccc(Cl)cc2)c2cnccc12 (stereo not drawn) = < 100 nM

Quote IC50 reported for CCOC(=O)C1CCN(c2nn(-c3ccc(Cl)cc3)c3cnccc23)CC1 please.
500 to 2500 nM

Quote IC50 reported for CN(C)CCCC(=O)N1CCC(c2cn(-c3ccc(Cl)cc3)c3cnccc23)CC1 please.
< 100 nM

Quote IC50 reported for O=C(C1CCCCN1c1nn(-c2ccc(Cl)cc2)c2cnccc12)N1CCNCC1 (stereo not drawn) please.
< 100 nM

----------
study_system: purified recombinantly expressed human SSAO (Homo sapiens, UniProt Q16853)
Sequence (Q16853 29-763 limits assumed): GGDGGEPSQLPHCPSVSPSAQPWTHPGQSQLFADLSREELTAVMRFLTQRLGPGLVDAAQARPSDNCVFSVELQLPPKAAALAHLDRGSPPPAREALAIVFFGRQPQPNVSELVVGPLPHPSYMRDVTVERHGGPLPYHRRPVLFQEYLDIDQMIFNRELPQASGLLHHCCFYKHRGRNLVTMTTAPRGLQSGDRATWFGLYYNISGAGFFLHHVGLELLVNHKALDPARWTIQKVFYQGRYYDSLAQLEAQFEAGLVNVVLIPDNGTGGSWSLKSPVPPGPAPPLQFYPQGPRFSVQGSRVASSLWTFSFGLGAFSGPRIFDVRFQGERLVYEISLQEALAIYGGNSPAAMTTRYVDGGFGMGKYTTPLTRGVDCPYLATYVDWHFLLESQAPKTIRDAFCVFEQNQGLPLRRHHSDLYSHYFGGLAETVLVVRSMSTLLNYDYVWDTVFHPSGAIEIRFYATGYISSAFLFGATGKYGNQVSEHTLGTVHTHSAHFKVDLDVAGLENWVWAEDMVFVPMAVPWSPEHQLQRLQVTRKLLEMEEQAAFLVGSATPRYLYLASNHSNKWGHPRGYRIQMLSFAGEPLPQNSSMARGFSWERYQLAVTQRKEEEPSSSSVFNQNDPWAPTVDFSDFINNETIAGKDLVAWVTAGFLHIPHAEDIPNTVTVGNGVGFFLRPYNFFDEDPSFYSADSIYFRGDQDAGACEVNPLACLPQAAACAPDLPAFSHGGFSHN
procedure_details: SSAO enzyme inhibition assay (benzylamine substrate; hydrogen peroxide/HRP-coupled or 14C aldehyde detection)
condition_description: human recombinant SSAO, RT, benzylamine as substrate; read-out: SSAO inhibitory activity IC50
Structures can show the parent of a compound that is named as a salt.
quantity_measured: IC50

Before answering, review these 8 worked examples.
NCCCOC(=O)N1CCC(c2cn(-c3ccc(Cl)cc3)c3cnccc23)CC1 = < 100 nM
COC(=O)C1CCCCN1c1nn(-c2ccc(Cl)cc2)c2cnccc12 (stereo not drawn) = 500 to 2500 nM
NCCNC(=O)C1CCCCN1c1nn(-c2ccc(Cl)cc2)c2cnccc12 (stereo not drawn) [Example 24, dihydrochloride] = < 100 nM
NCCCNC(=O)N1CCC(c2cn(-c3ccc(Cl)cc3)c3cnccc23)CC1 = < 100 nM
O=C(N1CCOCC1)N1CCC(c2cn(-c3ccc(Cl)cc3)c3cnccc23)CC1 = 100 to 500 nM
NCCNC(=O)C1CCN(c2nn(-c3ccc(Cl)cc3)c3cnccc23)CC1 [Example 14, dihydrochloride] = 100 to 500 nM
NCCNC(=O)C1COCCN1c1nn(-c2ccc(Cl)cc2)c2cnccc12 (stereo not drawn) = < 100 nM
FCc1ccc(-n2nc(C3CCOCC3)c3ccncc32)cc1 = 100 to 500 nM

Turning now to a further molecule:
Tell me its IC50 on purified recombinantly expressed human SSAO (Homo sapiens, UniProt Q16853): O=C(N1CCCNCC1)N1CCC(c2cn(-c3ccc(Cl)cc3)c3cnccc23)CC1
< 100 nM

Cited source for all entries: patent US9150574B2
